# subject.of.test: Delta-type opioid receptor (Homo sapiens, UniProt P41143)
# Sequence (P41143 whole entry): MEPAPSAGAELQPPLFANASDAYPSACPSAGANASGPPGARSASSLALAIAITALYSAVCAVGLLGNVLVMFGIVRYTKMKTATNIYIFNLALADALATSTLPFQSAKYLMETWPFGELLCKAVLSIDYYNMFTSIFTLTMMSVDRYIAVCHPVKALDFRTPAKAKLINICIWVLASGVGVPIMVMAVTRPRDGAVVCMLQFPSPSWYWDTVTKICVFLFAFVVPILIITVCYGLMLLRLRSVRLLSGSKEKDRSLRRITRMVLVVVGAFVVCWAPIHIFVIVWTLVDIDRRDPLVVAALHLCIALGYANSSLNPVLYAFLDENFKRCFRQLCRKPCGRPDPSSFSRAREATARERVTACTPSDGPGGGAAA
# test.description: Agonist activity at human recombinant delta opioid receptor expressed in CHO cell membranes after 60 mins by [35S]GTPgammaS binding assay
# Format: functional
pEC50: −log10 of the molar value.
Could you label it t if measured pEC50 is 8 or higher, and f otherwise?

>  <compound>
CN1C(=O)CCC2=C1[C@@H]1Oc3c(O)ccc4c3[C@@]13CCN(C)[C@H](C4)[C@]3(O)C2

>  <assigned.class>
f

$$$$
>  <compound>
CN1CC[C@]23c4c5ccc(O)c4O[C@H]2C2=C(C[C@@H](CCO)C(=O)N2Cc2ccccc2)C[C@@]3(O)[C@H]1C5

>  <assigned.class>
t

$$$$
>  <compound>
CN1C(=O)[C@@H](CCO)CC2=C1[C@@H]1Oc3c(O)ccc4c3[C@@]13CCN(C)[C@H](C4)[C@]3(O)C2

>  <assigned.class>
f

$$$$
>  <compound>
CCOC(=O)Cc1c2c(n(Cc3ccccc3)c1O)[C@@H]1Oc3c(O)ccc4c3[C@@]13CCN(C)[C@H](C4)[C@]3(O)C2

>  <assigned.class>
f

$$$$

We next turn to a different compound, shown below.
Task item: Hi team, for "CN1CC[C@]23c4c5ccc(O)c4O[C@H]2C2=C(CCC(=O)N2Cc2ccccc2)C[C@@]3(O)[C@H]1C5" , is the recorded pEC50 at or above 8?
Reply: t

* * *

# Activity per record follows
# subject.of.test: Mu-type opioid receptor (Homo sapiens)
# Sequence (P35372 whole entry): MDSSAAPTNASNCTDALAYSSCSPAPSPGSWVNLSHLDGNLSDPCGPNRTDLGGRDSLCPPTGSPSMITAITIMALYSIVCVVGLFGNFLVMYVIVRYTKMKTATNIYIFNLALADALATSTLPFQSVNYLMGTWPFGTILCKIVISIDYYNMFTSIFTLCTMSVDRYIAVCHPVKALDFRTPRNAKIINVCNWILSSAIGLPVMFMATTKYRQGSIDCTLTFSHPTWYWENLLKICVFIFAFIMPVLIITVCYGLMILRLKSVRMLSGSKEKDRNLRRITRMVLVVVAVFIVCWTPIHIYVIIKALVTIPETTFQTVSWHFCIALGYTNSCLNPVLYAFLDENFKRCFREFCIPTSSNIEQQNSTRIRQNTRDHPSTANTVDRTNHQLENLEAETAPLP
# test.description: Agonist activity at human recombinant mu opioid receptor expressed in CHO cell membranes after 60 mins by [35S]GTPgammaS binding assay relative to DAMGO
# Type: functional
Just the number please, in %, no unit attached.

>  <compound>
CN1C(=O)CCC2=C1[C@@H]1Oc3c(O)ccc4c3[C@@]13CCN(C)[C@H](C4)[C@]3(O)C2

>  <Activity / %>
40

$$$$
>  <compound>
CCOC(=O)Cc1c2c(n(Cc3ccccc3)c1O)[C@@H]1Oc3c(O)ccc4c3[C@@]13CCN(C)[C@H](C4)[C@]3(O)C2

>  <Activity / %>
86

$$$$
>  <compound>
CN1C(=O)[C@H](CCO)CC2=C1[C@@H]1Oc3c(O)ccc4c3[C@@]13CCN(C)[C@H](C4)[C@]3(O)C2

>  <Activity / %>
36

$$$$
>  <compound>
CN1CC[C@]23c4c5ccc(O)c4O[C@H]2C2=C(CCC(=O)N2Cc2ccccc2)C[C@@]3(O)[C@H]1C5

>  <Activity / %>
52

$$$$
>  <compound>
CN1CC[C@]23c4c5ccc(O)c4O[C@H]2C2=C(C[C@H](CCO)C(=O)N2Cc2ccccc2)C[C@@]3(O)[C@H]1C5

>  <Activity / %>
36

$$$$

Task item: Which Activity is reported for this molecule? "CN1C(=O)[C@@H](CCO)CC2=C1[C@@H]1Oc3c(O)ccc4c3[C@@]13CCN(C)[C@H](C4)[C@]3(O)C2"
Reply: 37

* * *

# subject.of.test: Delta-type opioid receptor (Homo sapiens)
# test.description: Displacement of [3H]Cl-DPDPE from human recombinant delta opioid receptor expressed in CHO cell membranes after 60 mins by scintillation counting method
// values below are reported Ki
Provide the reading as a plain figure in nM.

Task item: Fill in the blank: the reported Ki of "CN1C(=O)CCC2=C1[C@@H]1Oc3c(O)ccc4c3[C@@]13CCN(C)[C@H](C4)[C@]3(O)C2" is ____.
Reply: 9.39

Task item: # lookup: Ki of "O=C1CCC2=C([C@@H]3Oc4c(O)ccc5c4[C@@]34CCN(CC3CC3)[C@H](C5)[C@]4(O)C2)N1CC1CCCCC1"
Reply: 0.28

Task item: For the compound shown here, "CN1CC[C@]23c4c5ccc(O)c4O[C@H]2C2=C(C[C@@H](CCO)C(=O)N2Cc2ccccc2)C[C@@]3(O)[C@H]1C5" , give the reported Ki.
Reply: 1.02

Task item: Would you mind telling me what Ki value was observed for "CN1CC[C@]23c4c5ccc(O)c4O[C@H]2C2=C(CCC(=O)N2Cc2ccccc2)C[C@@]3(O)[C@H]1C5" ?
Reply: 0.92
